B1: TPR t1 (parent)
chain: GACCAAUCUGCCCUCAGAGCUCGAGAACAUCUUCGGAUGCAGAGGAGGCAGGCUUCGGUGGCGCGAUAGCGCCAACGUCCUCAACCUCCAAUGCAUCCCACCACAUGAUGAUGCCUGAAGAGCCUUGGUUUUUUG

Variants of: B1
TEST NAME: polymerase ribozyme fitness, log enrichment relative to wild type (log ratio); higher = more active; in vitro selection for triplet polymerase activity
Entry flag: yes (1) if polymerase ribozyme fitness (log ratio) reaches -2; no (0) if it does not.

Worked set:
MUTATION LABEL | CATEGORY
G47A A103C G122A | no (0)
C40G C49G G61U U87G U129A | no (0)
C40G G61A C72U U112C | yes (1)
C72G C82G | yes (1)

Tell me whether polymerase ribozyme fitness (log ratio) is at least -2 here: C49U U106A U116C
yes (1)

// inclusive: polymerase ribozyme fitness (log ratio) at least -2? input: C49A G52U G71C
yes (1)

Textbook exercise: given the entry C56U C64U , state whether its polymerase ribozyme fitness (log ratio) is greater than or equal to -2.
yes (1)

Decide: is the reported value of polymerase ribozyme fitness (log ratio) for C40G G48A equal to or greater than -2?
yes (1)

Quick check, polymerase ribozyme fitness (log ratio) >= -2? G63C G93A
yes (1)

Does C40G G110U have a reported polymerase ribozyme fitness (log ratio) of at least -2?
yes (1)

For this variant, is measured polymerase ribozyme fitness (log ratio) -2 or higher? U59A C104U
yes (1)

Reported polymerase ribozyme fitness (log ratio) at or above -2? G60U G63A C97A C99A A111U G122U U130A
no (0)

Answer whether polymerase ribozyme fitness (log ratio) of C22U A37U G69U U78C G110U C115A C124G is greater than or equal to -2.
no (0)

Dear colleague, could you confirm whether A6U A18U has polymerase ribozyme fitness (log ratio) at or above -2?
no (0)

Could you verify whether the entry C28U G113C shows polymerase ribozyme fitness (log ratio) of no less than -2?
no (0)

Dear colleague, could you confirm whether C13A G57C C85G C123U has polymerase ribozyme fitness (log ratio) at or above -2?
yes (1)

Where these numbers come from: the RNAGym collection of RNA variant scans (doi:10.1073/pnas.2313332121)
